- measurement.description: Ionization constant was determined
- Format: physicochemical
- settings: read-out: pKa
Counter-ions that a name gives are not always drawn.
readout.label: pKa

| molecule | pKa |
| --- | --- |
| N[C@H]1C[C@]1(F)c1ccccc1 (relative stereo) | 7.35 |
| N[C@@H]1C[C@H]1c1ccccc1 (relative stereo) [TRANYLCYPROMINE HYDROCHLORIDE] | 8.47 |
| Cc1ccc([C@@]2(F)C[C@@H]2N)cc1 | 7.04 |
| Cc1ccc([C@@]2(F)C[C@H]2N)cc1 (relative stereo) | 7.41 |
| N[C@@H]1C[C@]1(F)c1ccccc1 (relative stereo) | 6.98 |
| NC1CC1c1ccccc1 (centres undefined) | 8.5 |
| NC1CC1(F)c1ccc(Cl)cc1 (trans isomer) | 7.19 |
| N[C@@H]1C[C@]1(F)c1ccc(F)cc1 (relative stereo) | 7.31 |
| N[C@H]1C[C@]1(F)c1ccc(F)cc1 (relative stereo) | 6.88 |
